# Tested On: COX-2 (Homo sapiens)
# Construct: in the presence of LPS (10 μg/ml) for 24 h at 37° C. in order to induce the COX-2 expression; endogenous in cells; host or cells: human whole blood of healthy volunteers, LPS-stimulated for 24 h; PGE2 read-out
# Protocol Notes: COX-2 activity in human whole blood (PGE2, LPS induced)
# Type: cell-based
# Condition Set: ratio of COX-1/COX-2 IC50 values
Is Ratio COX-1/COX-2 at least 300? Then y. If not, n.

Q) Please check the record Cc1cc(=O)c(Oc2ccc(F)cc2F)c(-c2ccc([S+](C)[O-])cc2)o1 (racemic) [Example 1] and state if its Ratio COX-1/COX-2 is at or above 300.
A) n

Q) Please check the record Cc1cc(=O)c(Oc2ccc(F)cc2F)c(-c2ccc([S+](C)[O-])cc2)o1 (single isomer, unassigned; enantiomer 1b) [Example 3] and state if its Ratio COX-1/COX-2 is at or above 300.
A) y

Q) Please check the record Cc1cc(=O)c(Oc2ccc(Br)cc2F)c(-c2ccc([S+](C)[O-])cc2)o1 (single isomer, unassigned; enantiomer 7a) [Example 8] and state if its Ratio COX-1/COX-2 is at or above 300.
A) n

Q) Please check the record Cc1cc(=O)c(Oc2ccc(Br)cc2F)c(-c2ccc([S+](C)[O-])cc2)o1 (single isomer, unassigned; enantiomer 7b) [Example 9] and state if its Ratio COX-1/COX-2 is at or above 300.
A) y

Q) Please check the record Cc1cc(=O)c(Oc2ccc(F)cc2F)c(-c2ccc([S+](C)[O-])cc2)o1 (single isomer, unassigned; enantiomer 1a) [Example 2] and state if its Ratio COX-1/COX-2 is at or above 300.
A) n

Q) Please check the record Cc1cc(=O)c(Oc2ccc(Br)cc2F)c(-c2ccc([S+](C)[O-])cc2)o1 (racemic) [Example 7] and state if its Ratio COX-1/COX-2 is at or above 300.
A) n

====

# Tested On: COX-2 (Homo sapiens, UniProt P35354)
# Construct: in the presence of LPS (10 μg/ml) for 24 h at 37° C. in order to induce the COX-2 expression; endogenous in cells; PGE2 read-out
# Sequence (P35354 18-604): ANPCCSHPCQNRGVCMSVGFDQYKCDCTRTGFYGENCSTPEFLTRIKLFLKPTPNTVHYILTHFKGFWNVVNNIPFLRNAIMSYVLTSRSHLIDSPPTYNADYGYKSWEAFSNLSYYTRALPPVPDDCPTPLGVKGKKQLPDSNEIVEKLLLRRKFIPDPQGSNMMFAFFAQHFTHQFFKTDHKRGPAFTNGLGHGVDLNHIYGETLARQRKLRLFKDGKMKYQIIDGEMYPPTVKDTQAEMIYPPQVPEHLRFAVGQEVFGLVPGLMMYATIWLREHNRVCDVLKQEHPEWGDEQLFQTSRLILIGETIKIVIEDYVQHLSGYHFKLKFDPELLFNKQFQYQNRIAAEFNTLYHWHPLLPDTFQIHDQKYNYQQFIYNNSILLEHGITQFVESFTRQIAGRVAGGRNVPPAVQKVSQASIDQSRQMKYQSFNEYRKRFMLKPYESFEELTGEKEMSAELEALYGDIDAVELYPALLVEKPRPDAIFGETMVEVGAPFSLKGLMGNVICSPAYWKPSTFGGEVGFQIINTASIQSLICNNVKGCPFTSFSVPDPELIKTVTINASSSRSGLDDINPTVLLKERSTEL
# Protocol Notes: COX-2 activity in human whole blood (PGE2, LPS induced)
# Condition Set: LPS 10 μg/ml, 24 h at 37° C., PGE2 by EIA
Reported Metric: pIC50
Scale note: pIC50 = -log10(concentration in M).

Compound	Assay Value
Cc1cc(=O)c(Oc2ccc(F)cc2F)c(-c2ccc([S+](C)[O-])cc2)o1 (single isomer, unassigned; enantiomer 1a) [Example 2]	5.68
Cc1cc(=O)c(Oc2ccc(F)cc2F)c(-c2ccc([S+](C)[O-])cc2)o1 (single isomer, unassigned; enantiomer 1b) [Example 3]	6.57
Cc1cc(=O)c(Oc2ccc(Br)cc2F)c(-c2ccc([S+](C)[O-])cc2)o1 (racemic) [Example 7]	6.24
Cc1cc(=O)c(Oc2ccc(Br)cc2F)c(-c2ccc([S+](C)[O-])cc2)o1 (single isomer, unassigned; enantiomer 7b) [Example 9]	6.77

Q) Notebook: pull reported pIC50 for COX-2 (Homo sapiens, UniProt P35354), entry Cc1cc(=O)c(Oc2ccc(Br)cc2F)c(-c2ccc([S+](C)[O-])cc2)o1 (single isomer, unassigned; enantiomer 7a) [Example 8]
A) 5.80

Q) Notebook: pull reported pIC50 for COX-2 (Homo sapiens, UniProt P35354), entry Cc1cc(=O)c(Oc2ccc(F)cc2F)c(-c2ccc([S+](C)[O-])cc2)o1 (racemic) [Example 1]
A) 6.02

====

# Tested On: COX-1 (Homo sapiens)
# Construct: Fresh blood from healthy volunteers; endogenous in cells; TXB2 read-out
# Sequence (P23219 24-599): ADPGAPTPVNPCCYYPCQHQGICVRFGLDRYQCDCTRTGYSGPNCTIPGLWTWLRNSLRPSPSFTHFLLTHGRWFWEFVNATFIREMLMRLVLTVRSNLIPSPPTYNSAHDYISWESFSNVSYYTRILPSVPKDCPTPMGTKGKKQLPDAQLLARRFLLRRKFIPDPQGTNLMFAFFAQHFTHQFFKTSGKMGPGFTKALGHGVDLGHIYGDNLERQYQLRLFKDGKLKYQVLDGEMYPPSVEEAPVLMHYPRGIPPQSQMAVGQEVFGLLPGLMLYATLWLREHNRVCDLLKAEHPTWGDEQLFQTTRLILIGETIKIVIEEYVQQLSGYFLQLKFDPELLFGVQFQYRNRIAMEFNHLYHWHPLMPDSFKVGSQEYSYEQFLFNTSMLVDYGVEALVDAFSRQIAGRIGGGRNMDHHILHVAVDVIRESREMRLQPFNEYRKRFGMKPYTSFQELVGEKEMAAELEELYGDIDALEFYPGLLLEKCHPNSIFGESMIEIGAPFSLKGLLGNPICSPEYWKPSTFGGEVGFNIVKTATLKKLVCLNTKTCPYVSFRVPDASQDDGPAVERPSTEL
# Protocol Notes: COX-1 activity in human whole blood (TXB2, calcium ionophore A23187)
# Condition Set: 24 h at 37° C., A23187 25 μM, TXB2 by EIA
Threshold check on IC50: strictly below 70 µM is Satisfied; on or above 70 µM is Not satisfied.

Molecule	Label Value
Cc1cc(=O)c(Oc2ccc(Br)cc2F)c(-c2ccc([S+](C)[O-])cc2)o1 (single isomer, unassigned; enantiomer 7a) [Example 8]	Satisfied
Cc1cc(=O)c(Oc2ccc(Br)cc2F)c(-c2ccc([S+](C)[O-])cc2)o1 (single isomer, unassigned; enantiomer 7b) [Example 9]	Not satisfied
Cc1cc(=O)c(Oc2ccc(F)cc2F)c(-c2ccc([S+](C)[O-])cc2)o1 (single isomer, unassigned; enantiomer 1b)	Not satisfied

Q) Does this molecule meet the criterion IC50 < 70 µM? Cc1cc(=O)c(Oc2ccc(Br)cc2F)c(-c2ccc([S+](C)[O-])cc2)o1 (racemic) [Example 7]
A) Not satisfied

Q) Does this molecule meet the criterion IC50 < 70 µM? Cc1cc(=O)c(Oc2ccc(Cl)cc2F)c(-c2ccc([S+](C)[O-])cc2)o1 (single isomer, unassigned; enantiomer 4a)
A) Not satisfied
